Target: HIV-1 integrase wild-type (IN1-288) (Human immunodeficiency virus 1) (UniProt P12497)
Test: inhibition
Settings: all phosphodiester; I; 3'-processing; strand transfer >0.5
PARAMETER: IC50

Exercise: For the sequence TCTTCCTCTCTCTACCCACGCTCIC [T30658 antisense GEM91 variant PD] , give its reported IC50.
Solution: > 500 nM
